B1: ATE1 (parent)
chain: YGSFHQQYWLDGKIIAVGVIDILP

Variants of: B1
Test Name: protein stability index of a GFP-peptide fusion (GPS, HEK-293T) (PSI 1-6); higher = more stable;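 note: lentivirally expressed fusions sorted by FACS into six bins by GFP to DsRed ratio, PSI derived from sequencing read proportions per bin multiplied by bin number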
Conditions: c terminus: a fixed tail appended
# protein stability index per entry
Property Measured: protein stability index

Sequence Content | Reading
YGSFHQRYWLDGKIIAVGVIDILP [Q7R] | 2.99
YGSFHQQYWLDGKIIAVGMIDILP [V19M] | 2.91
YGSFHQQYWLDGKIIAVGRIDILP [V19R] | 2.92
YGSFHQQYWLDGKIIAYGVIDILP [V17Y] | 2.91
YGSFHQQYWLDGKIIAVGQIDILP [V19Q] | 2.97
YGSFHQQYYLDGKIIAVGVIDILP [W9Y] | 2.97
YGSFHQQQWLDGKIIAVGVIDILP [Y8Q] | 3.04
YGSFHQQYWLDGKIIAWGVIDILP [V17W] | 3
YGSFHQQYHLDGKIIAVGVIDILP [W9H] | 3.06
